target: HLA-B*51:01; test: IEDB peptide-MHC binding, purified MHC/direct/fluorescence; filed as Kd, often an IC50 or EC50 that approximates it; bounds were set here for any values at or beyond the usual limits of such assays; conditions: source organism: Bacillus anthracis
pKd: −log10 of the molar value.
measuredParameter: pKd

In: Give me measured pKd, please, for this sequence: RPQHVKKSA
Out: ≤ 4.70

###

target: HLA-B*57:01; test: IEDB peptide-MHC binding, purified MHC/competitive/fluorescence; filed as Kd, often an IC50 or EC50 that approximates it; bounds were set here for any values at or beyond the usual limits of such assays; settings: source organism: Orthohantavirus sinnombreense
measuredParameter: Kd

In: Give me measured Kd, please, for this sequence: YRTLGVFRY
Out: ≥ 20 µM
